Measured MIC accompanies every entry in the list below.
# System: Candida albicans
# assay-explanation: Antifungal activity against clinical isolates of Candida albicans 2367 by broth microdilution assay
# Format: functional

- compound: "CCc1ccnc(-c2nccn2Cc2nnc(-c3ccccc3)o2)c1"
  MIC: "> 1000 µg/mL"
- compound: "CCc1ccnc(-c2nccn2Cc2nnc(Cc3ccc(C(C)C)cc3)o2)c1"
  MIC: "> 1000 µg/mL"
- compound: "CCc1ccnc(-c2nccn2Cc2nnc(-c3ccc(N)cc3)o2)c1"
  MIC: "32 µg/mL"
- compound: "CCc1ccnc(-c2nccn2Cc2nnc(-c3ccc(Cl)cc3Cl)o2)c1"
  MIC: "> 1000 µg/mL"
- compound: "CCc1ccnc(-c2nccn2Cc2nnc(-c3ccccc3OC(C)=O)o2)c1"
  MIC: "8 µg/mL"
- compound: "CCc1ccnc(-c2nccn2Cc2nnc(-c3ccc(Cl)cc3)o2)c1"
  MIC: "> 1000 µg/mL"
- compound: "CCc1ccnc(-c2nccn2Cc2nnc(-c3ccc([N+](=O)[O-])cc3)o2)c1"
  MIC: "16 µg/mL"
- compound: "CCc1ccnc(-c2nccn2Cc2nnc(COc3ccc(Cl)cc3)o2)c1"
  MIC: "> 1000 µg/mL"
- compound: "OC(Cn1cncn1)(Cn1cncn1)c1ccc(F)cc1F [FLUCONAZOLE]"
  MIC: "16 µg/mL"
- compound: "CCc1ccnc(-c2nccn2Cc2nnc(-c3ccccc3N)o2)c1"
  MIC: "> 1000 µg/mL"
- compound: "CCc1ccnc(-c2nccn2Cc2nnc(-c3ccccc3Cl)o2)c1"
  MIC: "> 1000 µg/mL"

---

# Tested on: Candida albicans
# assay-explanation: Antifungal activity against clinical isolates of Candida albicans 2323 by broth microdilution assay
# Assay type: functional
parameter: MIC

- compound: "CCc1ccnc(-c2nccn2Cc2nnc(Cc3ccc(C(C)C)cc3)o2)c1"
  value-observed: "> 1000 µg/mL"
- compound: "CCc1ccnc(-c2nccn2Cc2nnc(-c3ccc([N+](=O)[O-])cc3)o2)c1"
  value-observed: "16 µg/mL"
- compound: "OC(Cn1cncn1)(Cn1cncn1)c1ccc(F)cc1F [FLUCONAZOLE]"
  value-observed: "32 µg/mL"
- compound: "CCc1ccnc(-c2nccn2Cc2nnc(COc3ccc(Cl)cc3)o2)c1"
  value-observed: "> 1000 µg/mL"
- compound: "CCc1ccnc(-c2nccn2Cc2nnc(-c3ccc(N)cc3)o2)c1"
  value-observed: "32 µg/mL"
- compound: "CCc1ccnc(-c2nccn2Cc2nnc(-c3ccccc3)o2)c1"
  value-observed: "> 1000 µg/mL"
- compound: "CCc1ccnc(-c2nccn2Cc2nnc(-c3ccc(Cl)cc3Cl)o2)c1"
  value-observed: "> 1000 µg/mL"
- compound: "CCc1ccnc(-c2nccn2Cc2nnc(-c3ccccc3N)o2)c1"
  value-observed: "> 1000 µg/mL"
- compound: "CCc1ccnc(-c2nccn2Cc2nnc(-c3ccccc3OC(C)=O)o2)c1"
  value-observed: "16 µg/mL"
- compound: "CCc1ccnc(-c2nccn2Cc2nnc(-c3ccccc3Cl)o2)c1"
  value-observed: "> 1000 µg/mL"
- compound: "CCc1ccnc(-c2nccn2Cc2nnc(-c3ccc(Cl)cc3)o2)c1"
  value-observed: "> 1000 µg/mL"

---

# Test system: Candida tropicalis
# assay-explanation: Antifungal activity against Candida tropicalis ATCC 750 by broth microdilution assay
# Type: functional
molecules and their reported MIC
parameter: MIC

- chemical-smiles: "CCc1ccnc(-c2nccn2Cc2nnc(-c3ccccc3N)o2)c1"
  parameter: "MIC"
  value-observed: "> 1000 µg/mL"
- chemical-smiles: "CCc1ccnc(-c2nccn2Cc2nnc(COc3ccc(Cl)cc3)o2)c1"
  parameter: "MIC"
  value-observed: "> 1000 µg/mL"
- chemical-smiles: "CCc1ccnc(-c2nccn2Cc2nnc(-c3ccc(Cl)cc3Cl)o2)c1"
  parameter: "MIC"
  value-observed: "> 1000 µg/mL"
- chemical-smiles: "CCc1ccnc(-c2nccn2Cc2nnc(-c3ccccc3Cl)o2)c1"
  parameter: "MIC"
  value-observed: "> 1000 µg/mL"
- chemical-smiles: "CCc1ccnc(-c2nccn2Cc2nnc(-c3ccc(Cl)cc3)o2)c1"
  parameter: "MIC"
  value-observed: "> 1000 µg/mL"
- chemical-smiles: "CCc1ccnc(-c2nccn2Cc2nnc(-c3ccccc3OC(C)=O)o2)c1"
  parameter: "MIC"
  value-observed: "4 µg/mL"
- chemical-smiles: "CCc1ccnc(-c2nccn2Cc2nnc(-c3ccc([N+](=O)[O-])cc3)o2)c1"
  parameter: "MIC"
  value-observed: "16 µg/mL"
- chemical-smiles: "CCc1ccnc(-c2nccn2Cc2nnc(-c3ccc(N)cc3)o2)c1"
  parameter: "MIC"
  value-observed: "16 µg/mL"
- chemical-smiles: "CCc1ccnc(-c2nccn2Cc2nnc(Cc3ccc(C(C)C)cc3)o2)c1"
  parameter: "MIC"
  value-observed: "> 1000 µg/mL"
- chemical-smiles: "CCc1ccnc(-c2nccn2Cc2nnc(-c3ccccc3)o2)c1"
  parameter: "MIC"
  value-observed: "> 1000 µg/mL"
- chemical-smiles: "OC(Cn1cncn1)(Cn1cncn1)c1ccc(F)cc1F"
  parameter: "MIC"
  value-observed: "16 µg/mL"
